- Method: NCI Yeast Anticancer Drug Screen. Data for the bub3 strain (AID 167)
- Run conditions: S. cerevisiae bub3 mutant strain, at 1.2 µM, hits give high values
Compounds without any hit were thinned out: in the full panel of roughly 79,000, 15% have a hit.
We begin with a simple list: items and their reported growth inhibition.

Compound | growth inhibition, %
N#CC(C(=O)Nc1ccccc1)C1=C(Cl)C(=O)c2ccccc2C1=O (stereo unspecified) | -49
CSC(=S)Nc1cc(C)ccn1 | -8
CCC#CCCCOC(=O)c1cc([N+](=O)[O-])cc([N+](=O)[O-])c1 | -10
COc1cc2c(cc1[N+](=O)[O-])C(=O)C(Br)(Br)CCC2 | 9
NC(=NCc1ccccc1)N/N=C\c1ccnc2ccccc12 | 0
CCCCCCCCCCCCCCCCCCOCC(O)COP(=O)(O)OCC1OC(n2cc(F)c(=O)[nH]c2=O)CC1O (stereo unspecified) | 14
Brc1ccc(-c2cc3c(cc2C2SCCS2)OCO3)cc1 | -16
c1ccc2c(c1)NC(NC1Nc3ccccc3N1)N2 | -2
COC(=O)C1=C(C)NC(C)=C(C(=O)OC)C1c1cccc(/[N+]([O-])=C/c2ccccc2)c1 | 1
[N-]=[N+]=NC1=C(c2ccccn2)C(=O)c2cccc3cccc1c23 | -1
OC(COc1cccc2ccccc12)CN1CCOCC1 (stereo unspecified) | 8

---

- Method: NCI Yeast Anticancer Drug Screen. Data for the rad14 strain (AID 159);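 further: 0% = growth of vehicle-treated control cultures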
- Run conditions: S. cerevisiae rad14 strain growth inhibition; at 3.7 µM
Compounds without any hit were thinned out: in the full panel of roughly 79,000, 15% have a hit. The source made the active and inactive calls. Cut-off read from the data, not from the text of the source: active = growth inhibition above about 70%; inactive = the rest.
Outcome codes: 1 = active, -1 = inactive

Molecule | Assigned class
[N-]=N[N+]#I1OC(C(F)(F)F)(C(F)(F)F)c2ccccc21 | 1
CCC[CH2][Ge]([CH2]CCC)([CH2]CCC)[O]C(=O)C(OC)c1ccccc1 (stereo not given) | -1
O=[n+]1c2ccc(Cl)cc2n([O-])c2ccc(Cl)cc21 | -1
COc1ccc(C2c3cc4c(cc3OC(C)(O)C2C)OCO4)c(OC)c1 (stereo not given) | -1
COP(=O)(OC)/C(=C\C1=CN(C(c2ccccc2)(c2ccccc2)c2ccccc2)CN1)NC=O | -1

---

- Method: NCI Yeast Anticancer Drug Screen. Data for the bub3 strain (AID 167)
- Run conditions: S. cerevisiae bub3 mutant strain, at 5.0 µM (retest, dose inferred, filed as 0.5), hits give high values
The panel holds about 79,000 compounds, 15% with a hit somewhere; the sample as a whole holds those more often.

Molecule | growth inhibition [%]
O=[N+]([O-])CC(SCc1ccccc1)c1ccc2c(c1)OCO2 (stereo not given) | 89
BrCC[P+](c1ccccc1)(c1ccccc1)c1ccccc1 | 47
CCNc1nnc(CSc2nc(-c3ccccc3)c(-c3ccccc3)[nH]2)s1 | 36
Cn1c(N)nc(-c2ccc(Cl)cc2)c1SSc1c(-c2ccc(Cl)cc2)nc(N)n1C | -4
CCCCCCCCCCCCCC[N+](C)(CC(=O)[O-])Cc1ccccc1 (stereo not given) | 2
O=C1C=CC(=Nc2ccc3c(c2)Cc2cc(NC(=O)C(F)(F)F)ccc2-3)O1 | 25
c1ccc2c(c1)NC(NC1Nc3ccccc3N1)N2 | 19
Cc1ccc(Nc2nc3c(=O)n(C)c(=O)n(C)c3nc2Nc2ccc(C)cc2)cc1 | -9
COc1ccc(/C(C)=N/OC(=O)c2c(-c3ccccc3Cl)noc2C)cc1CN1CCOCC1 | 17
c1ccc2c(c1)c1ncccc1c1nccnc21 | -58
O=[N+]([O-])c1ccc(=S)[nH]c1 | 10
CCCCCCCCCCNC(=O)OCC | -21
CC(=O)OCCOCNC(=S)N/N=C(\C)c1cnccn1 | -5
Cc1cc2c(cc1C(=O)CCC(=O)O)CC1(C2)Cc2cc(C)c(C(=O)CCC(=O)O)cc2C1 | 13
O=C1OC(=O)C2CCCC3CCCC1C32 (stereo not given) | 53
CC1OCC2OC(C)OC(C3C4=C(CC(C)(C)CC4=O)OC4=C3C(=O)CC(C)(C)C4)C2O1 (stereo not given) | -46
CCc1ncnc2cc(OCC3CO3)c(OC)cc12 (stereo not given) | 10
CC(Br)C(=O)c1ccc2cc(Br)c3ccccc3c2c1 (stereo not given) | -10
COC(=O)CCNc1c2ccccc2nc2cccc([N+](=O)[O-])c12 | 10
COc1ccccc1N=NC(C(=O)c1ccccc1)C(=O)c1ccccc1 | 5
CN=C(N)N/N=C/c1ccc2c(c1)Cc1ccccc1-2 | 30
CO[C@H]1C[C@](C)(O)Cc2cc3c(c(O)c21)C(=O)c1c(O)cc2c(c1C3=O)O[C@@H]1O[C@@]2(C)[C@H](O)[C@@H](N(C)C)[C@@H]1O | -2
Cc1ccc(S(=O)(=O)NNC(=S)Nc2cccc3ccccc23)cc1 | -19
CCCN(CCC)CC(O)c1cc(-c2ccc(Cl)cc2)nc2c(C)c(Cl)ccc12 (stereo not given) | 6
N#Cc1ccc(C2NN=CC23C(=O)c2ccccc2OC3c2ccccc2)cc1 (stereo not given) | -28
CCCCCCCCCCCCCCCCCCOCC(O)COP(=O)(O)OCC1OC(n2cc(F)c(=O)[nH]c2=O)CC1O (stereo not given) | -12
N#CSc1ccc(S(N)(=O)=O)cc1 | 5
O=C(Nc1ccccc1)OCCc1ccc(Cl)c(Cl)c1 | 6
C/C(=N/NC(=S)N1CCCCCC1)c1cccc(/C(C)=N\NC(=S)N2CCCCCC2)n1 | 58
CCOC(=O)c1cnc2c(C(F)(F)F)cccc2c1N=[N+]=[N-] | -3
CN(C)CCn1c2c3ccccc3ccc2c2oc(=O)c3ccccc3c21 | 3
Cc1ccc2[nH]c3c(C)c4cc[n+](C)cc4c(C)c3c2c1 | 12
S=c1[nH]nc(Nc2ccc(Cl)cc2)s1 | -67
CCS(=O)(=O)c1ccc(/C=C/C=N/NC(=S)NCC(C)C)cc1 | -12
Cn1c(=O)c2ccccc2c2ccccc21 | -69
N#C/C(=C\c1cccc(OCc2ccccc2)c1)c1ccc([N+](=O)[O-])cc1 | -5
COc1ccc2ccc3ccccc3c2c1C=O | 5
Oc1c(Br)cc(Br)cc1C1CCCCC1 | 4
Cc1c(C(Cc2ccccc2N(C)C(=O)/C=C\C(=O)O)c2c[nH]c3ccccc23)c2ccccc2n1C (stereo not given) | -6
O=Nc1c(NO)ccc2nn(-c3ccccc3)nc12 | 1
CC(C)[N+]([O-])(CCCNc1c2ccccc2nc2cccc([N+](=O)[O-])c12)C(C)C | -2
CCN(CC)CC(O)c1ccc2ccc3ccccc3c2c1 (stereo not given) | 10
O=[N+]([O-])c1ccc2c(c1)C(N1CCN(CCO)CC1)Cc1ccc(F)cc1S2 (stereo not given) | -2
CN(C)c1ccc(C(C#N)=C(C#N)C#N)cc1 | -54
Cc1c(Cl)ccc2c1S(=O)(=O)c1cccc(Cl)c1-2 | 18

---

We begin with a simple list: items and their reported growth inhibition.
- Method: NCI Yeast Anticancer Drug Screen. Data for the rad50EPP+ strain (AID 151);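 further: 0% = growth of vehicle-treated control cultures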
- Run conditions: S. cerevisiae rad50 mutant strain, at 33.0 µM, hits give high values
- Experimental: Growth inhibition of yeast strains with defined genetic alterations is measured as a screen for potential anti-cancer activity. Selected strains with alterations in DNA damage repair or cell cycle control were exposed to compounds and growth inhibition was measured relative to vehicle treated controls. The strain used in this assay is rad50EPP+
Compounds without any hit were thinned out: in the full panel of roughly 79,000, 15% have a hit.

Molecule | growth inhibition / %
c1ccc2c(c1)NC(NC1Nc3ccccc3N1)N2 | 38
[N-]=N[N+]#I1OC(C(F)(F)F)(C(F)(F)F)c2ccccc21 | 93
Clc1ccccc1C1OC1c1ccccc1Cl (stereo unspecified) | 20
CC(C)(CN1CCCCC1)C(=O)CC(SCCS(=O)(=O)O)c1ccc(Br)cc1 (stereo unspecified) | 0
S=c1[nH]nc(Nc2ccc(Cl)cc2)s1 | 27
O=C(OCC=C1CCCC1)c1cc([N+](=O)[O-])cc([N+](=O)[O-])c1 | 87
CCCCCCCCCCCC1=C(O)C(=O)C=C(O)C1=O | 79
COC1C=COC2(C)Oc3c(C)c(O)c4c(c3C2=O)/C(=N/C2CCC(O)OC2C)C=C(NC(=O)/C(C)=C\C(=O)C2CC2C(O)C(C)C(O)C(C)C(OC(C)=O)C1C)C4=O (stereo unspecified) | -7
c1ccc2c(c1)C(=NCCCN1CCCCCC1)c1cccn1-2 | 3
O=C(c1ccc(Cl)cc1Cl)C(Cl)Cl | 94
Cc1ccc2ccc3cccc4ccc1c2c34 | 33

---

- Method: NCI Yeast Anticancer Drug Screen. Data for the rad50EPP+ strain (AID 151);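 further: 0% = growth of vehicle-treated control cultures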
- Run conditions: S. cerevisiae rad50 mutant strain, at 100.0 µM, hits give high values
This is part of a sample that, as a whole, favours compounds with a hit. Of some 79,000 tested, about 15% had one in any assay.
We begin with a simple list: items and their reported growth inhibition.
Endpoint label: growth inhibition (%)

Compound | Recorded measurement
Cn1c(N)nc(-c2ccc(Cl)cc2)c1SSc1c(-c2ccc(Cl)cc2)nc(N)n1C | 97
Cc1ccc(S(=O)(=O)NCCSS(=O)(=O)c2ccc(C)cc2)cc1 | 96
CCCC/C=C/C(CC)(C(=O)OCC)C(=O)OCC | 39
O=C1OC(CCl)CN1/N=C/c1ccc([N+](=O)[O-])o1 (stereo unspecified) | 73
Oc1ccc(NCn2c(=S)sc3ccccc32)cc1 | 82
COP(=O)(OC)/C(=C\C1=CN(C(c2ccccc2)(c2ccccc2)c2ccccc2)CN1)NC=O | 97
N#CSc1ccc(S(N)(=O)=O)cc1 | -14
COc1cc(C2C3=C(COC3=O)Oc3cc4c(cc32)OCO4)ccc1O (stereo unspecified) | 15
O=C(O)C1CCCCC1c1c2ccc(=O)c(O)c-2oc2c(O)c(O)ccc12 (stereo unspecified) | -48
Oc1ccc2ccccc2c1C(c1ccc(Cl)cc1)c1c(O)ccc2ccccc12 | -44
Cc1ccc(-n2cc(-c3ccc(Cl)cc3)c(C#N)c2N)cc1 | 56
